System Under Test: T1, Cathepsin B (Homo sapiens, UniProt P07858)
T1 construct: purchased R&D Systems, Bio-Techne AG 953-CY-010
Assay Explanation: Cat B-induced cleavage study (in vitro enzymatic cleavage assay, UHPLC-MS/MS)
Assay type: biochemical
Measurement Context: human, recombinant human Cathepsin B; 10 μM compound, Cathepsin B 2 μg/mL, 25 mM MES buffer pH 5.0, 37° C.; read-out: T1/2 Compound
Where a SMILES comes first, the peptide text is derived from it. Side-chain parts run from the residue outwards. [ ]: non-standard residue; d: D form. The star is where a group is joined. DM1Mal(CH2)2CO = COc1cc2cc(c1Cl)N(C)C(=O)C[C@H](OC(=O)[C@H](C)N(C)C(=O)CCSC1CC(=O)N(CCC(=O)*)C1=O)[C@]1(C)O[C@H]1[C@H](C)[C@@H]1C[C@@](O)(NC(=O)O1)[C@H](OC)/C=C/C=C(\C)C2; X1 = CC(=O)N[C@@H](CSC1CC(=O)N(CCC(=O)*)C1=O)C(=O)O; Cit = NC(=O)NCCC[C@H](N)C(=O)O; PEG4 = NCCOCCOCCOCCOCCC(=O)O
Endpoint: half-life at 10 μM (s)
Unit s implied. Number only.

Examples from the recorded data:
| Compound | System Under Test | Unit Name | half-life at 10 μM |
| --- | --- | --- | --- |
| COc1cc2cc(c1Cl)N(C)C(=O)C[C@H](OC(=O)[C@H](C)N(C)C(=O)CCSC1CC(=O)N(CCC(=O)N[C@@H](Cc3ccccc3)C(=O)N[C@@H](CCCNC(N)=O)C(=O)N[C@@H](Cc3ccccc3)C(=O)N[C@@H](CCCCNC(=O)CCOCCOCCOCCOCCNC(=O)CCN3C(=O)CC(SC[C@H](NC(C)=O)C(=O)O)C3=O)C(=O)O)C1=O)[C@]1(C)O[C@H]1[C@H](C)[C@@H]1C[C@@](O)(NC(=O)O1)[C@H](OC)/C=C/C=C(\C)C2 (stereo partly shown) [Compound 7] ({DM1Mal(CH2)2CO}-F[Cit]FK([PEG4-X1])-OH; N-terminus assumed) | T1, Cathepsin B (Homo sapiens, UniProt P07858) | s | 72 |
| COc1cc2cc(c1Cl)N(C)C(=O)C[C@H](OC(=O)[C@H](C)N(C)C(=O)CCSC1CC(=O)N(CCC(=O)N[C@@H](Cc3ccccc3)C(=O)N[C@@H](CCCCN)C(=O)N[C@@H](CCCCNC(=O)CCOCCOCCOCCOCCNC(=O)CCN3C(=O)CC(SC[C@H](NC(C)=O)C(=O)O)C3=O)C(=O)N[C@@H](Cc3ccccc3)C(=O)O)C1=O)[C@]1(C)O[C@H]1[C@H](C)[C@@H]1C[C@@](O)(NC(=O)O1)[C@H](OC)/C=C/C=C(\C)C2 (stereo partly shown) [Compound 5] ({DM1Mal(CH2)2CO}-FKK([PEG4-X1])F-OH; N-terminus assumed) | T1, Cathepsin B (Homo sapiens, UniProt P07858) | s | 36 |
| COc1cc2cc(c1Cl)N(C)C(=O)C[C@H](OC(=O)[C@H](C)N(C)C(=O)CCSC1CC(=O)N(CCC(=O)N[C@@H](Cc3ccccc3)C(=O)N[C@@H](CCCNC(N)=O)C(=O)N[C@@H](CCCCNC(=O)CCOCCOCCOCCOCCNC(=O)CCN3C(=O)CC(SC[C@H](NC(C)=O)C(=O)O)C3=O)C(=O)N[C@@H](Cc3ccccc3)C(=O)O)C1=O)[C@]1(C)O[C@H]1[C@H](C)[C@@H]1C[C@@](O)(NC(=O)O1)[C@H](OC)/C=C/C=C(\C)C2 (stereo partly shown) [Compound 6] ({DM1Mal(CH2)2CO}-F[Cit]K([PEG4-X1])F-OH; N-terminus assumed) | T1, Cathepsin B (Homo sapiens, UniProt P07858) | s | 18 |

Query :: Report half-life at 10 μM for COc1cc2cc(c1Cl)N(C)C(=O)C[C@H](OC(=O)[C@H](C)N(C)C(=O)CCSC1CC(=O)N(CC3CCC(C(=O)N[C@@H](Cc4ccccc4)C(=O)N[C@@H](CCCNC(N)=O)C(=O)N[C@@H](CCCCNC(=O)CCOCCOCCOCCOCCOCCNC(=O)CN4C(=O)CC(SC[C@H](NC(C)=O)C(=O)O)C4=O)C(=O)N[C@@H](Cc4ccc(O)cc4)C(=O)O)CC3)C1=O)[C@]1(C)O[C@H]1[C@H](C)[C@@H]1C[C@@](O)(NC(=O)O1)[C@H](OC)/C=C/C=C(\C)C2 (stereo partly shown) please.
Result :: 3.6

====

Ratio (T1/2 Compound/T1/2 Reference) for assorted compounds
System Under Test: Cathepsin B (Homo sapiens, UniProt P07858)
Construct: purchased R&D Systems, Bio-Techne AG 953-CY-010
Assay Explanation: Cat B-induced cleavage study (in vitro enzymatic cleavage assay, UHPLC-MS/MS)
Assay type: biochemical
Measurement Context: reference: Cys-MC-Val-Cit-PABC-MMAF
Where a SMILES comes first, the peptide text is derived from it. Side-chain parts run from the residue outwards. [ ]: non-standard residue; d: D form. The star is where a group is joined. DM1Mal(CH2)2CO = COc1cc2cc(c1Cl)N(C)C(=O)C[C@H](OC(=O)[C@H](C)N(C)C(=O)CCSC1CC(=O)N(CCC(=O)*)C1=O)[C@]1(C)O[C@H]1[C@H](C)[C@@H]1C[C@@](O)(NC(=O)O1)[C@H](OC)/C=C/C=C(\C)C2; X1 = CC(=O)N[C@@H](CSC1CC(=O)N(CCC(=O)*)C1=O)C(=O)O; Dolaproine = CO[C@@H]([C@@H]1CCCN1)[C@@H](C)C(=O)O; Dil = CC[C@H](C)[C@H](NC)[C@@H](CC(=O)O)OC; NMe2Val = CC(C)[C@@H](C(=O)*)N(C)C; PEG5 = NCCOCCOCCOCCOCCOCCC(=O)O; Cit = NC(=O)NCCC[C@H](N)C(=O)O; PEG4 = NCCOCCOCCOCCOCCC(=O)O
Number, no unit, nothing else.

// known answers, use as guide
| Compound | Ratio (T1/2 Compound/T1/2 Reference) |
| --- | --- |
| COc1cc2cc(c1Cl)N(C)C(=O)C[C@H](OC(=O)[C@H](C)N(C)C(=O)CCSC1CC(=O)N(CC3CCC(C(=O)N[C@@H](Cc4ccccc4)C(=O)N[C@@H](CCCNC(N)=O)C(=O)N[C@@H](CCCCNC(=O)CCOCCOCCOCCOCCOCCNC(=O)CN4C(=O)CC(SC[C@H](NC(C)=O)C(=O)O)C4=O)C(=O)N[C@@H](Cc4ccc(O)cc4)C(=O)O)CC3)C1=O)[C@]1(C)O[C@H]1[C@H](C)[C@@H]1C[C@@](O)(NC(=O)O1)[C@H](OC)/C=C/C=C(\C)C2 (some centres unmarked) [Compound 11] | 0.005 |
| COc1cc2cc(c1Cl)N(C)C(=O)C[C@H](OC(=O)[C@H](C)N(C)C(=O)CCSC1CC(=O)N(CCC(=O)N[C@@H](Cc3ccccc3)C(=O)N[C@@H](CCCCN)C(=O)N[C@@H](CCCCNC(=O)CCOCCOCCOCCOCCNC(=O)CCN3C(=O)CC(SC[C@H](NC(C)=O)C(=O)O)C3=O)C(=O)N[C@@H](Cc3ccccc3)C(=O)O)C1=O)[C@]1(C)O[C@H]1[C@H](C)[C@@H]1C[C@@](O)(NC(=O)O1)[C@H](OC)/C=C/C=C(\C)C2 (some centres unmarked) [Compound 5] ({DM1Mal(CH2)2CO}-FKK([PEG4-X1])F-OH; N-terminus assumed) | 0.05 |
| CC[C@H](C)[C@@H]([C@@H](CC(=O)N1CCC[C@H]1[C@H](OC)[C@@H](C)C(=O)N[C@@H](Cc1ccccc1)C(=O)N[C@@H](CCCNC(=N)N)C(=O)N[C@@H](CCCCNC(=O)CCOCCOCCOCCOCCOCCNC(=O)CCN1C(=O)CC(SC[C@H](NC(C)=O)C(=O)O)C1=O)C(=O)N[C@@H](Cc1ccccc1)C(=O)O)OC)N(C)C(=O)[C@@H](NC(=O)[C@H](C(C)C)N(C)C)C(C)C (stereo partly drawn) [Compound 1, AF-Arg-Lys(PEG4-Mal-Cys-Ac)-Phe-OH] (NMe2Val-V[Dil][Dolaproine]FRK([PEG5-X1])F-OH; N-terminus assumed) | 0.12 |
| CC[C@H](C)[C@@H]([C@@H](CC(=O)N1CCC[C@H]1[C@H](OC)[C@@H](C)C(=O)N[C@@H](Cc1ccccc1)C(=O)N[C@@H](CCCNC(N)=O)C(=O)N[C@@H](CCCCNC(=O)CCOCCOCCOCCOCCNC(=O)CCN1C(=O)CC(SC[C@H](NC(C)=O)C(=O)O)C1=O)C(=O)N[C@@H](Cc1ccccc1)C(=O)O)OC)N(C)C(=O)[C@@H](NC(=O)[C@H](C(C)C)N(C)C)C(C)C (stereo partly drawn) [Compound 8, AF-Cit-Lys(PEG4-Mal-Cys-Ac)-Phe-OH] (NMe2Val-V[Dil][Dolaproine]F[Cit]K([PEG4-X1])F-OH; N-terminus assumed) | 0.09 |
| COc1cc2cc(c1Cl)N(C)C(=O)C[C@H](OC(=O)[C@H](C)N(C)C(=O)CCSC1CC(=O)N(CC3CCC(C(=O)N[C@@H](CCCNC(N)=O)C(=O)N[C@@H](CCCCNC(=O)CCOCCOCCOCCOCCOCCNC(=O)CN4C(=O)CC(SC[C@H](NC(C)=O)C(=O)O)C4=O)C(=O)N[C@@H](Cc4ccc(O)cc4)C(=O)O)CC3)C1=O)[C@]1(C)O[C@H]1[C@H](C)[C@@H]1C[C@@](O)(NC(=O)O1)[C@H](OC)/C=C/C=C(\C)C2 (stereo partly drawn) [Compound 12, DM1-Mcc-Cit-Lys(PEG5-Ma-Cys-Ac)-Tyr-OH] | 0.00004 |
| CC[C@H](C)[C@@H]([C@@H](CC(=O)N1CCC[C@H]1[C@H](OC)[C@@H](C)C(=O)N[C@@H](Cc1ccccc1)C(=O)N[C@@H](CCCNC(=N)N)C(=O)N[C@@H](Cc1ccccc1)C(=O)N[C@@H](CCCCNC(=O)CCOCCOCCOCCOCCNC(=O)CCN1C(=O)CC(SC[C@H](NC(C)=O)C(=O)O)C1=O)C(=O)O)OC)N(C)C(=O)[C@@H](NC(=O)[C@H](C(C)C)N(C)C)C(C)C (stereo partly drawn) [Compound 3, AF-Arg-Phe-Lys(PEG4-Mal-Cys-Ac)-OH] (NMe2Val-V[Dil][Dolaproine]FRFK([PEG4-X1])-OH; N-terminus assumed) | 0.11 |

Query :: # returns recorded Ratio (T1/2 Compound/T1/2 Reference) (system: Cathepsin B (Homo sapiens, UniProt P07858)) for COc1cc2cc(c1Cl)N(C)C(=O)C[C@H](OC(=O)[C@H](C)N(C)C(=O)CCSC1CC(=O)N(CCC(=O)N[C@@H](Cc3ccccc3)C(=O)N[C@@H](CCCNC(N)=O)C(=O)N[C@@H](Cc3ccccc3)C(=O)N[C@@H](CCCCNC(=O)CCOCCOCCOCCOCCNC(=O)CCN3C(=O)CC(SC[C@H](NC(C)=O)C(=O)O)C3=O)C(=O)O)C1=O)[C@]1(C)O[C@H]1[C@H](C)[C@@H]1C[C@@](O)(NC(=O)O1)[C@H](OC)/C=C/C=C(\C)C2 (some centres unmarked) [Compound 7] ({DM1Mal(CH2)2CO}-F[Cit]FK([PEG4-X1])-OH; N-terminus assumed)
Result :: 0.09

Query :: Given the entry COc1cc2cc(c1Cl)N(C)C(=O)C[C@H](OC(=O)[C@H](C)N(C)C(=O)CCSC1CC(=O)N(CCC(=O)N[C@@H](Cc3ccccc3)C(=O)N[C@@H](CCCNC(N)=O)C(=O)N[C@@H](CCCCNC(=O)CCOCCOCCOCCOCCNC(=O)CCN3C(=O)CC(SC[C@H](NC(C)=O)C(=O)O)C3=O)C(=O)N[C@@H](Cc3ccccc3)C(=O)O)C1=O)[C@]1(C)O[C@H]1[C@H](C)[C@@H]1C[C@@](O)(NC(=O)O1)[C@H](OC)/C=C/C=C(\C)C2 (some centres unmarked) [Compound 6] ({DM1Mal(CH2)2CO}-F[Cit]K([PEG4-X1])F-OH; N-terminus assumed) , what Ratio (T1/2 Compound/T1/2 Reference) was observed with Cathepsin B (Homo sapiens, UniProt P07858)?
Result :: 0.02
